TESTED SYSTEM: OR1A2 (Homo sapiens)
RUN CONDITIONS: stereoisomer not certain
TEST READOUT: odorant receptor agonist call

Below, 5 compounds whose answers are already recorded.
COMPOUND	odorant receptor agonist call
CCCCCCCCO	active
C1CCNC1	inactive
CC1CCC(C(C)C)C(=O)C1 (stereo not drawn)	inactive
C=CC(O)CCCCC (stereo not drawn)	inactive
CCC=CCCCCCC=O	active

Proceed to the following item.
Task: Requested field: odorant receptor agonist call. Item: CCCCCCC=CC=O
Output: inactive

###

Tested on: A0A3Q7SVK8
RUN CONDITIONS: stereoisomer not certain
I would appreciate it if you answered using one of these outcomes: yes = active, no = inactive

Task: How did this test come out for CCc1cnc(C)c(C)n1 ?
Output: no

Task: How did this test come out for COc1nccnc1CC(C)C ?
Output: yes

Task: How did this test come out for Cc1cnc(C)cn1 ?
Output: yes

Task: How did this test come out for CCc1ncc(C)nc1CC ?
Output: yes

Task: How did this test come out for CCc1nccnc1C(C)=O ?
Output: yes

Task: How did this test come out for Cc1cncc(C)n1 ?
Output: yes

Task: How did this test come out for CCc1nccnc1CC ?
Output: yes

Task: How did this test come out for Cc1nccnc1C ?
Output: yes

Task: How did this test come out for CC1CCc2nccnc21 (stereo unspecified) ?
Output: yes

Task: How did this test come out for Cc1cnc(C)c(C)n1 ?
Output: yes

Task: How did this test come out for CC(=O)c1cnccn1 ?
Output: yes

Task: How did this test come out for CCC(C)c1nccnc1OC (stereo unspecified) ?
Output: yes

Task: How did this test come out for Cc1cnccn1 ?
Output: yes

Task: How did this test come out for CCc1nccnc1OC ?
Output: yes

Task: How did this test come out for CC(=O)c1nccnc1C ?
Output: yes

Task: How did this test come out for COC1=C(C)OC(C)C1=O (stereo unspecified) ?
Output: no

###

TESTED SYSTEM: OR13C4 (Homo sapiens) (UniProt Q8NGS5)
Sequence (Q8NGS5 whole entry): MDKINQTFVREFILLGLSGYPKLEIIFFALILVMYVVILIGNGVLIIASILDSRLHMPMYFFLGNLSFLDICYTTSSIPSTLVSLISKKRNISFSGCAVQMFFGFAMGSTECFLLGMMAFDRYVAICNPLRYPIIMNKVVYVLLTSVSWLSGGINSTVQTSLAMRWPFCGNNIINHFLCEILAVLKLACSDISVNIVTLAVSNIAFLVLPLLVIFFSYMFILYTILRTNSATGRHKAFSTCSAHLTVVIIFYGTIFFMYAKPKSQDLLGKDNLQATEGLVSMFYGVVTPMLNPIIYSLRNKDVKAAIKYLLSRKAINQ
RUN CONDITIONS: stereoisomer not certain
TEST READOUT: odorant receptor agonist call

MOLECULE	TEST READOUT	MEASUREMENT
CCCCCC(=O)C(C)C(C)=O (stereo not given)	odorant receptor agonist call	inactive
CC(CO)CS (stereo not given)	odorant receptor agonist call	inactive
CC1=C(O)C(=O)OC1C (stereo not given)	odorant receptor agonist call	inactive
CC1=C(O)C(=O)C(C)O1 (stereo not given)	odorant receptor agonist call	inactive

Task: Observed odorant receptor agonist call on OR13C4 (Homo sapiens) (UniProt Q8NGS5) for CC1=NC(C)C(C)S1 (stereo not given) , please.
Output: inactive

Task: Observed odorant receptor agonist call on OR13C4 (Homo sapiens) (UniProt Q8NGS5) for CCC(S)C(C)CO (stereo not given) , please.
Output: inactive

Task: Observed odorant receptor agonist call on OR13C4 (Homo sapiens) (UniProt Q8NGS5) for Cc1cnc(C)c(C)n1 , please.
Output: inactive

Task: Observed odorant receptor agonist call on OR13C4 (Homo sapiens) (UniProt Q8NGS5) for CCC1OC(=O)C(O)=C1C (stereo not given) , please.
Output: inactive

Task: Observed odorant receptor agonist call on OR13C4 (Homo sapiens) (UniProt Q8NGS5) for CCC1OC(C)=C(O)C1=O (stereo not given) , please.
Output: inactive

Task: Observed odorant receptor agonist call on OR13C4 (Homo sapiens) (UniProt Q8NGS5) for CC1CCCCCCCCCCCCC(=O)C1 (stereo not given) , please.
Output: inactive
